Listing of entries alongside the reported pEC50.
TARGET: human M4 muscarinic acetylcholine receptor (Homo sapiens, UniProt P08173)
Sequence (P08173 whole entry): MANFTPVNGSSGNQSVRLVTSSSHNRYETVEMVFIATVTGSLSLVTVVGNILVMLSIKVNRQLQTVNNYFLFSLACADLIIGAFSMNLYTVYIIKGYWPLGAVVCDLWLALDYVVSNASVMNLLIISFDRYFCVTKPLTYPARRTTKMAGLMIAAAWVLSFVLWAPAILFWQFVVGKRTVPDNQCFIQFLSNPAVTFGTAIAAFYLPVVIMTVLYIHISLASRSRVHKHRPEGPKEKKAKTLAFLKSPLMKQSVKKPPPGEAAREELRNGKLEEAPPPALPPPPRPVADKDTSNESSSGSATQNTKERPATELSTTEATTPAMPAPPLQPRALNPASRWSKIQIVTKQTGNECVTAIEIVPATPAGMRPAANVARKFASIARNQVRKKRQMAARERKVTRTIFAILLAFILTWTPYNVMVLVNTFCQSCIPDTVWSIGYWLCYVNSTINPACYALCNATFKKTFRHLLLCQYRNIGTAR
MEASUREMENT_PROTOCOL: human FLIPR-based M4 PAM assay (Ca2+ mobilization, CHO-K1 cells with human M4 receptor and Gαqi5)
COND: acetylcholine at 20% of maximum response, read-out: M4 PAM IP
pEC50: −log10 of the molar value.
OBSERVATION_TYPE: pEC50

>>> df
                                    compound                                    target  endpoint_value
 0  Cc1cc2c(nc1N1CCC(OCC3(C)CC3(F)F)CC1)CNC2=O (centres unmarked) [Example 64]  human M4 muscarinic acetylcholine receptor (Homo sapiens, UniProt P08173)            6.69
 1  Cc1cc2c(nc1N1[C@@H]3CC[C@H]1C[C@H](Oc1ccc4c(cnn4C)c1)C3)CNC2=O [Example 98]  human M4 muscarinic acetylcholine receptor (Homo sapiens, UniProt P08173)            6.28
 2  CCc1cc2c(nc1N1CC[C@@H](Oc3cnc4c(c3)COC4)[C@@H](F)C1)CNC2=O [Example 164A]  human M4 muscarinic acetylcholine receptor (Homo sapiens, UniProt P08173)            6.69
 3  Cc1cc2c(nc1N1CCC(Oc3ccc(NCCO)nc3)CC1)CNC2=O [Example 324E]  human M4 muscarinic acetylcholine receptor (Homo sapiens, UniProt P08173)            6.38
 4  Cc1cc2c(nc1N1CCC(Oc3ccc4nccn4c3)CC1)CNC2=O [Example 182A]  human M4 muscarinic acetylcholine receptor (Homo sapiens, UniProt P08173)            6.33
 5  COCCOCc1ccc(OC2CCN(c3nc4c(cc3C)C(=O)NC4)CC2)cc1 [Example 205]  human M4 muscarinic acetylcholine receptor (Homo sapiens, UniProt P08173)            6.62
 6  CCc1cc2c(nc1N1CCC(Oc3ccc4c(cnn4C)c3)CC1)[C@@H](CO)N(C)C2=O [Example 363]  human M4 muscarinic acetylcholine receptor (Homo sapiens, UniProt P08173)            7.00
 7  Cc1cc2c(nc1N1CCC(Oc3ccc4[nH]nc(C)c4c3)CC1)CNC2=O [Example 117]  human M4 muscarinic acetylcholine receptor (Homo sapiens, UniProt P08173)            7.77
 8  COc1ccc(O[C@H]2CCN(c3nc4c(cc3C)C(=O)NC4)C[C@H]2C)cn1 [Example 29B]  human M4 muscarinic acetylcholine receptor (Homo sapiens, UniProt P08173)            4.52
 9  Cc1c(N2CCC(OCC3(C)CC3)CC2)nc2c(c1C)C(=O)NC2 [Example 219]  human M4 muscarinic acetylcholine receptor (Homo sapiens, UniProt P08173)            7.60
10  Cc1c(N2CCC(Oc3ccc(F)cc3)CC2)nc2c(c1C)C(=O)N(C)[C@H]2CO [Example 354]  human M4 muscarinic acetylcholine receptor (Homo sapiens, UniProt P08173)            5.83
11  CCOC1CCN(c2nc3c(cc2C)C(=O)NC3)CC1 [Example 55]  human M4 muscarinic acetylcholine receptor (Homo sapiens, UniProt P08173)            5.95
12  Cc1c(N2CCC(Oc3ccc4c(c3)COC4)CC2)nc2c(c1CO)C(=O)NC2 [Example 303]  human M4 muscarinic acetylcholine receptor (Homo sapiens, UniProt P08173)            6.52
13  Cc1cc2c(nc1N1CCC(Oc3ccc(F)cc3)CC1)CN(C)C2=O [Example 253]  human M4 muscarinic acetylcholine receptor (Homo sapiens, UniProt P08173)            7.31
14  Cc1cc2c(nc1N1CCC(Oc3cnc4c(c3)COC4)CC1)CN(CCO)C2=O [Example 236A]  human M4 muscarinic acetylcholine receptor (Homo sapiens, UniProt P08173)            6.84
15  Cc1cc2c(nc1N1CCC(Oc3ccc4c(c3)C[S+]([O-])C4)CC1)CNC2=O (single isomer, unassigned) [Example 168A]  human M4 muscarinic acetylcholine receptor (Homo sapiens, UniProt P08173)            6.68
16  Cc1cc2c(nc1N1CCC(Oc3ccc(N(C)C)nc3)CC1)CNC2=O [Example 106]  human M4 muscarinic acetylcholine receptor (Homo sapiens, UniProt P08173)            6.53
